system: Abeta 1-42; assay: Cellular αLisa assay in SKNBE2 cells, Abeta 1-42; format: cell-based, human; settings: Homo sapiens, SKNBE2, 18 h, incubated for 18 hours, read-out: Cellular αLisa assay in SKNBE2 cells Abeta 42 pIC50 (converted)
assay.readout: IC50 (nM)

Reference set, count: 3
>>> meas_value("N#Cc1cnc(C(=O)Nc2cccc([C@@]3(C4CC4)N=C(N)CO[C@@H]3C(F)(F)F)c2)c(Cl)c1 [Compound 290]")
18.6
>>> meas_value("C[C@]1(c2cc(NC(=O)c3cnc(OCC(F)(F)F)cn3)ccc2F)N=C(N)CO[C@]1(F)C(F)(F)F [Compound 318]")
851
>>> meas_value("C[C@]1(c2cc(NC(=O)c3cnc(OCC(F)(F)F)cn3)ccc2F)N=C(N)CO[C@@]1(F)C(F)(F)F [Compound 319]")
74.1

P = COc1cnc(C(=O)Nc2ccc(F)c([C@@]3(C)N=C(N)CO[C@@H]3F)c2)cn1 [Compound 123]
Q = C[C@]1(c2cccc(NC(=O)c3ncc(C#N)cc3Cl)c2)N=C(N)CO[C@@]1(F)C(F)(F)F [Compound 246]
R = N#Cc1cnc(C(=O)Nc2cccc([C@@]3(C4CC4)N=C(N)CO[C@H]3C(F)(F)F)c2)c(Cl)c1 [Compound 291]
S = C[C@@]1(c2cc(NC(=O)c3ccc(Cl)cn3)ccc2F)N=C(N)CO[C@]1(F)C(F)(F)F (single isomer, unassigned) [Compound 109]
T = Cc1cc(Br)cnc1C(=O)Nc1cccc([C@@]2(C3CC3)N=C(N)CO[C@@H]2F)c1 [Compound 313]
IN: Arrange the 5 compounds by rising IC50, starting with the smallest. Return the labels ranked in the requested order, please.
OUT: R, P, T, Q, S

* * *

target: recombinant BACE1 protein (Homo sapiens); experiment: Biochemical FRET based assay; settings: recombinant BACE1 1 μg/ml, 120 minutes at room temperature, pH 5.0
assay.readout: Biochemical FRET based assay pIC50

>>> meas_value("CC1(c2cccc(NC(=O)c3ccc(C#N)cn3)c2)COCC(N)=N1 (single isomer, unassigned) [Compound 49]")
4.6
>>> meas_value("Cc1ccc(C(=O)Nc2ccc(F)c(C3(C)COCC(N)=N3)c2)nc1 (stereo not shown)")
6.77
>>> meas_value("CC1(c2cc(-c3ccc(Cl)cc3)c(F)cc2F)COCC(N)=N1 (stereo not shown)")
5.05
>>> meas_value("Cc1cc(Cl)cnc1C(=O)Nc1ccc(F)c([C@]2(C)COCC(N)=N2)c1")
7.48
>>> meas_value("CC1(c2cc(-c3cncnc3)ccc2F)COCC(N)=N1 (single isomer, unassigned) [Compound 54]")
5.41
>>> meas_value("CC1(c2cccc(NC(=O)c3ccc(Cl)cn3)c2)COC(F)(C(F)(F)F)C(N)=N1 (single isomer, unassigned) [Compound 70]")
5.77
>>> meas_value("CC1(c2cc(NC(=O)c3ncc(Cl)cc3F)ccc2F)COCC(N)=N1 (stereo not shown)")
7.11
>>> meas_value("N#Cc1ccc(C(=O)Nc2cccc(C3(C4CC4)N=C(N)COC3(F)C(F)(F)F)c2)nc1 (stereo not shown)")
6.52
>>> meas_value("COc1cncc(-c2cc(C3(C)COCC(N)=N3)c(F)cc2F)c1 (racemic)")
5.69
>>> meas_value("COc1cncc(-c2ccc(F)c(C3(C)COCC(N)=N3)c2)c1 (single isomer, unassigned) [Compound 56]")
5.69
>>> meas_value("CC1(c2cc(NC(=O)c3ccc(Cl)cn3)c(F)cc2F)COCC(N)=N1 (racemic)")
5.65
>>> meas_value("COc1cccc(-c2cc([C@]3(C)COCC(N)=N3)c(F)cc2F)c1")
5.95
>>> meas_value("C[C@@]1(c2cc(-c3cncnc3)c(F)cc2F)N=C(N)CO[C@H]1F (racemic)")
6.01
>>> meas_value("COc1cncc(-c2ccc(F)c(C3(C)COCC(N)=N3)c2)c1 (racemic) [Compound 63]")
5.46
>>> meas_value("CC1(c2cc(NC(=O)c3ccc(F)cn3)ccc2F)COCC(N)=N1 (stereo not shown)")
6.93

* * *

biological target: recombinant BACE1 protein (Homo sapiens, UniProt P56817); assay: Biochemical FRET based assay; conditions: recombinant BACE1 1 μg/ml, 120 minutes at room temperature, pH 5.0
Sequence (P56817 46-501): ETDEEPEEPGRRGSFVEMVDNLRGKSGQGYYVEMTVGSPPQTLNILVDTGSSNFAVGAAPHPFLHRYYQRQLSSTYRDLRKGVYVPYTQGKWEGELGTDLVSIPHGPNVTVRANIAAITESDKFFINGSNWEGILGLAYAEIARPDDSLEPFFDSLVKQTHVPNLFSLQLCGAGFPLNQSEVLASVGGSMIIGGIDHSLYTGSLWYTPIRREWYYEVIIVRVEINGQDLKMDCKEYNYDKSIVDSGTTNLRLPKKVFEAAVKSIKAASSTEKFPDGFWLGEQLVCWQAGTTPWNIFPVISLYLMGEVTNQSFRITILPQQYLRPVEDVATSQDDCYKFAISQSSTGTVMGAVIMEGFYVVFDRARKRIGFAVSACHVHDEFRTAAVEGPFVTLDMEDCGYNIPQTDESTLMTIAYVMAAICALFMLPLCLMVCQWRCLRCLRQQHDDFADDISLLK
assay.readout: Biochemical FRET based assay pIC50

>>> meas_value("Cc1cnc(C(=O)Nc2ccc(F)c([C@]3(C)COCC(N)=N3)c2)cn1 [Compound 40]")
6.04
>>> meas_value("Cc1cccnc1C(=O)Nc1ccc(F)c(C2(C)COCC(N)=N2)c1 (centres unmarked) [Compound 30]")
6.05
>>> meas_value("CC1(c2cc(-c3cncc(Cl)c3)c(F)cc2F)COCC(N)=N1 (centres unmarked) [Compound 23]")
5.86
>>> meas_value("C[C@@]1(c2cccc(-c3cccc(C#N)c3)c2)COCC(N)=N1 [Compound 51]")
5.41
>>> meas_value("C[C@@]1(c2cc(NC(=O)c3ccc(Cl)cc3)ccc2F)COCC(N)=N1 [Compound 41]")
6.33
>>> meas_value("CC1(c2cc(-c3cncnc3)c(F)cc2F)COCC(N)=N1 (racemic) [Compound 59]")
5.36
>>> meas_value("C[C@H]1OC[C@@](C)(c2cccc(NC(=O)c3ccc(Cl)cn3)c2)N=C1N (racemic) [Compound 151]")
6.4
>>> meas_value("CC1(c2cccc(NC(=O)c3ccc(C#N)cn3)c2)COCC(N)=N1 (single isomer, unassigned) [Compound 50]")
6.93

* * *

target: P-gp (Homo sapiens); construct: expressed in transfected cells; host or cells: LLC-PK1 cells stably transduced with MDR1 (LLC-MDR1); assay: Transepithelial transport of test compounds through LLC-MDR1 monolayers; assay type: in vitro ADME; conditions: pig, LLC-PK1; read-out: B to A (Apparent Permeability, Papp)
Sequence (P08183 whole entry): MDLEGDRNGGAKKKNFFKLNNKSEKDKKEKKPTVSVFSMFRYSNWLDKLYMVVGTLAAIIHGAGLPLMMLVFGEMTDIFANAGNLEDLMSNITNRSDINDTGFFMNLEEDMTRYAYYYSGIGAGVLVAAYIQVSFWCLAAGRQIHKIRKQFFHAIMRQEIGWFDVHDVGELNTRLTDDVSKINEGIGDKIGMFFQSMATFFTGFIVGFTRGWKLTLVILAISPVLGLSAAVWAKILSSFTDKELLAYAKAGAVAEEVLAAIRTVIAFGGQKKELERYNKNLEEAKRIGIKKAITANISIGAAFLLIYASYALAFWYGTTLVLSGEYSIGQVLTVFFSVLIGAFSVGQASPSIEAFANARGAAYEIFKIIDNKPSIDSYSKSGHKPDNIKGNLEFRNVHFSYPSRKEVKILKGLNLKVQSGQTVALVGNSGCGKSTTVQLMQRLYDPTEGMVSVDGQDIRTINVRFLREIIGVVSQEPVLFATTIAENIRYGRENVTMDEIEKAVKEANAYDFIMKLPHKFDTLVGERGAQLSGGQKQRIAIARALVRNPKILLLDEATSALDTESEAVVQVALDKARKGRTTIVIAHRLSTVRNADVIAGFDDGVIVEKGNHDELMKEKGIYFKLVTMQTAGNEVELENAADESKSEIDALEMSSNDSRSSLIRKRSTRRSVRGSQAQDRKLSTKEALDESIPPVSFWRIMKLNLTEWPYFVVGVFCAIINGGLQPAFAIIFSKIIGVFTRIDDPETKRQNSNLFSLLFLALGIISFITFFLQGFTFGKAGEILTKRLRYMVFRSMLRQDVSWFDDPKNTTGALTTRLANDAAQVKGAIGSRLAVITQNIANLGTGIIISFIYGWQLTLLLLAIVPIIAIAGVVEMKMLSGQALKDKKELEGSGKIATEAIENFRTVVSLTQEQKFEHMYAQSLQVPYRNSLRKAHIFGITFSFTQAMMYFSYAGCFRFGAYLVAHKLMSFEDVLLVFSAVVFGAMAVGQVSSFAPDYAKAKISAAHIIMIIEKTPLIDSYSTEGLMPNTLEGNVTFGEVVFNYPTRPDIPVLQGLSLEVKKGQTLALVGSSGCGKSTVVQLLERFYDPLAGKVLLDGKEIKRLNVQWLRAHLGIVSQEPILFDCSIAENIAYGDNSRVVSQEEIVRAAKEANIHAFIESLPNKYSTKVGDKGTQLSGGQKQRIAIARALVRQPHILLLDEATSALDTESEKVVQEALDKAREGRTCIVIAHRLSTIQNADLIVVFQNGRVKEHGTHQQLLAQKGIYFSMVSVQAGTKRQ
assay.readout: Papp B→A at 120 min, 1 μM (×10⁻⁶ cm/s)

>>> meas_value("C[C@]1(c2cccc(NC(=O)c3ccc(Cl)cn3)c2)N=C(N)CO[C@@H]1F (single isomer, unassigned)")
20.9
>>> meas_value("CC1(c2cc(-c3cncnc3)ccc2F)N=C(N)COC1C(F)(F)F (single isomer, unassigned)")
19.8

P = COc1cncc(-c2cccc(C3(C)N=C(N)COC3(F)C(F)(F)F)c2)c1 (single isomer, unassigned)
Q = CC1(c2cccc(NC(=O)c3ccc(Cl)cn3)c2)N=C(N)COC1(F)C(F)(F)F (single isomer, unassigned)
IN: Just curious, which one has the larger Papp B→A at 120 min, 1 μM reading, P or Q ? State your choice using its label.
OUT: P

* * *

tested on: Abeta total; test: Cellular αLisa assay in SKNBE2 cells, Abeta total; assay type: cell-based, human; conditions: Homo sapiens, SKNBE2, 18 h, incubated for 18 hours, read-out: Cellular αLisa assay in SKNBE2 cells Abetatotal pIC50 (converted)
assay.readout: IC50 (nM)

>>> meas_value("C[C@@]1(c2cc(-c3cncnc3)c(F)cc2F)COC2(CC2)C(N)=N1")
200
>>> meas_value("C[C@]1(c2cccc(NC(=O)c3ccc(C#N)cn3)c2)N=C(N)CO[C@@]1(F)C(F)(F)F")
120
>>> meas_value("NC1=N[C@@](c2cc(-c3cncc(Cl)c3)ccc2F)(C2CC2)[C@H](F)OC1")
6460
>>> meas_value("N#Cc1cnc(C(=O)Nc2cccc([C@@]3(C4CC4)N=C(N)CO[C@H]3F)c2)c(Cl)c1")
72.4
>>> meas_value("C[C@]1(c2cccc(NC(=O)c3ncc(Cl)cc3Cl)c2)N=C(N)CO[C@@]1(F)C(F)(F)F")
263

1 = CCC1(c2cc(NC(=O)c3cnc(OC)cn3)ccc2F)N=C(N)COC1C(F)(F)F (centres unmarked)
2 = NC1=N[C@@](c2cc(-c3cncc(Cl)c3)ccc2F)(C2CC2)[C@@H](F)OC1
IN: Identify the entry with the smaller IC50: 1 or 2 . Give the chosen item's label as your response.
OUT: 1
(1: 15.8 nM, 2: 4900 nM)

* * *

system: Abeta total; assay: Cellular αLisa assay in SKNBE2 cells, Abeta total; assay type: cell-based, human; details: Homo sapiens, SKNBE2, 18 h, incubated for 18 hours, read-out: Cellular αLisa assay in SKNBE2 cells Abetatotal pIC50 (converted)
assay.readout: IC50 (nM)

Here is how some compounds turned out for IC50.
>>> meas_value("CC1(c2cccc(NC(=O)c3ccc(Cl)cn3)c2)COC(F)(C(F)(F)F)C(N)=N1 (single isomer, unassigned) [Compound 15]")
3090
>>> meas_value("N#Cc1ccc(C(=O)Nc2ccc(F)c([C@@]3(C4CC4)N=C(N)CO[C@@]3(F)C(F)(F)F)c2)nc1 [Compound 262]")
74.1
>>> meas_value("N#Cc1ccc(C(=O)Nc2cccc([C@@]3(C4CC4)N=C(N)CO[C@H]3F)c2)nc1 [Compound 280]")
57.5
>>> meas_value("COc1ccc(C(=O)Nc2ccc(F)c([C@@]3(C)N=C(N)CO[C@]3(F)C(F)(F)F)c2)nc1 [Compound 304]")
339
>>> meas_value("N#Cc1cncc(-c2cccc([C@@]3(C4CC4)N=C(N)CO[C@H]3C(F)(F)F)c2)c1 [Compound 253]")
50.1
>>> meas_value("COc1cncc(-c2cccc(C3(C)COCC(N)=N3)c2)c1 (racemic) [Compound 4]")
219

1 = C[C@]1(c2cc(-c3cncnc3)c(F)cc2F)N=C(N)CO[C@H]1C(F)(F)F [Compound 254]
2 = COc1ccc(C(=O)Nc2cccc([C@@]3(C)N=C(N)CO[C@]3(F)C(F)(F)F)c2)nc1 [Compound 247]
IN: Hi there, can you help? I need to know whether 1 or 2 has lower measured IC50. Answer with the label corresponding to your selection.
OUT: 2

A = COc1cnc(C(=O)Nc2ccc(F)c([C@@]3(C4CC4)N=C(N)CO[C@@H]3F)c2)cn1 [Compound 216]
B = CCC1(c2cc(NC(=O)c3ncc(Cl)cc3F)ccc2F)N=C(N)COC1F (stereo not drawn) [Compound 283]
C = NC1=N[C@@](c2cccc(-c3cncnc3)c2)(C2CC2)[C@@H](F)OC1 [Compound 257]
D = C[C@]1(c2cccc(NC(=O)c3ncc(C#N)cc3Cl)c2)N=C(N)CO[C@@]1(F)C(F)(F)F [Compound 246]
IN: List these items ordered by IC50, big to small. Answer by listing the labels in the order asked for.
OUT: C, A, D, B

A = NC1=N[C@@](c2cccc(NC(=O)c3ncc(Cl)cc3Cl)c2)(C2CC2)[C@@H](F)OC1 [Compound 256]
B = NC1=N[C@@](c2cccc(NC(=O)c3ncc(Cl)cc3F)c2)(C2CC2)[C@H](F)OC1 [Compound 249]
IN: Would you mind telling me which has the lower recorded IC50 between A and B ? Answer with the label corresponding to your selection.
OUT: A
(A: 26.3 nM, B: 81.3 nM)

A = NC1=N[C@@](c2cccc(-c3cncnc3)c2)(C2CC2)[C@@H](C(F)(F)F)OC1 [Compound 286]
B = COc1cnc(C(=O)Nc2cccc([C@@]3(C4CC4)N=C(N)CO[C@@]3(F)C(F)(F)F)c2)cn1 [Compound 203]
IN: Parameter check: reported IC50 is higher for which label, A or B ? Select an item and report its label.
OUT: A
(A: 155 nM, B: 37.2 nM)

I = CC1(c2cc(NC(=O)c3ncc(Cl)cc3Cl)ccc2F)N=C(N)COC1F (stereo not drawn) [Compound 78]
II = C[C@]1(c2cc(NC(=O)c3ccc(Cl)cn3)ccc2F)N=C(N)CO[C@@]1(F)C(F)(F)F (single isomer, unassigned) [Compound 110]
III = Cc1cc(Br)cnc1C(=O)Nc1ccc(F)c([C@@]2(C3CC3)N=C(N)CO[C@@H]2F)c1 [Compound 314]
IN: Hey, quick one: sort these by IC50, low to high? Field: ranking. Enter the labels in the order requested.
OUT: I, II, III

1 = C[C@]1(c2cc(NC(=O)c3cnc(OCC(F)(F)F)cn3)ccc2F)N=C(N)CO[C@]1(F)C(F)(F)F [Compound 318]
2 = C[C@]1(c2cc(NC(=O)c3ncc(C#N)cc3Cl)ccc2F)N=C(N)CO[C@]1(F)C(F)(F)F [Compound 306]
3 = NC1=N[C@@](c2cccc(NC(=O)c3cnc(OCC(F)(F)F)cn3)c2)(C2CC2)[C@H](F)OC1 [Compound 274]
4 = CC1(c2cc(-c3cncnc3)c(F)cc2F)N=C(N)COC1F (single isomer, unassigned) [Compound 81]
5 = C[C@]1(c2cccc(NC(=O)c3ncc(Cl)cc3Cl)c2)N=C(N)CO[C@]1(F)C(F)(F)F [Compound 242]
IN: Sort ascending by IC50. Could you list the labels in the order requested?
OUT: 2, 5, 3, 1, 4

A = CCC1(c2cc(-c3cncc(C#N)c3)ccc2F)N=C(N)COC1C(F)(F)F (stereo not drawn) [Compound 310]
B = C[C@]1(c2cc(-c3cncc(Cl)c3)c(F)cc2F)N=C(N)CO[C@@]1(F)C(F)(F)F [Compound 213]
IN: Which of the two gives a bigger number for IC50: A or B ? Return value: the label identifying the chosen record.
OUT: B

P = C[C@]1(c2cc(NC(=O)c3ncc(Cl)cc3Cl)ccc2F)N=C(N)CO[C@@]1(F)C(F)(F)F [Compound 181]
Q = COc1cnc(C(=O)Nc2cccc([C@@]3(C4CC4)N=C(N)CO[C@]3(F)C(F)(F)F)c2)cn1 [Compound 202]
IN: Would you mind telling me which has the lower recorded IC50 between P and Q ? Mark your selection by writing its label.
OUT: P
